Below, each of the binders is paired with its reported kon value.
- Target of assay: canine IL-4RA (construct not given) (canine)
- Experiment: SPR, combinatorial Fab-SASA clone
Only the number, expressed in M⁻¹ s⁻¹, is required.

Example results:
[[record]]
binder = "AHF21170 (Fab, V domains shown, not shown: small tags and cut ends) VH: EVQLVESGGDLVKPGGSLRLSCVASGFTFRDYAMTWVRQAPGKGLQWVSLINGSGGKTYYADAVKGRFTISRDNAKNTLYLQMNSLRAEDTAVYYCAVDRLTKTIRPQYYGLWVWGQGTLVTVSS VL: DIVMTQTPLSLSVSPGETASISCRSSQSLTYSIGYNYLDWYLQKPGQSPQGLIYLGSKRASGVPDRFSGSGSGTDFTLRISRVEANDTGVYYCMQGLQSPLTFGQGTKLEIKR"
reported_metric = "kon"
numeric_result = 147000

[[record]]
binder = "AHF21174 (Fab, V domains shown, not shown: small tags and cut ends) VH: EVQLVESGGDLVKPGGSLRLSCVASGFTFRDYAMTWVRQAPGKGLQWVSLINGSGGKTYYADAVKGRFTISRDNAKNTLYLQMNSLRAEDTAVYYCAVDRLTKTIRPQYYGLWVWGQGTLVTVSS VL: DIVMTQTPLSLSVSPGETASISCRSSQSLTYSIGYNYLDWYLQKPGQSPQGLIYLGHKRASGVPDRFSGSGSGTDFTLRISRVEANDTGVYYCMQGLQSPLSFGQGTKLEIKR"
reported_metric = "kon"
numeric_result = 184000


# next binder below
// query Look up kon for this binder: AHF21186 (Fab, V domains shown, not shown: small tags and cut ends) VH: EVQLVESGGDLVKPGGSLRLSCVASGFTFRDYAMTWVRQAPGKGLQWVSLINGSGGKTYYADAVKGRFTISRDNAKNTLYLQMNSLRAEDTAVYYCAVDRLTKTIRPQYYGLWHWGQGTLVTVSS VL: DIVMTQTPLSLSVSPGETASISCRSSQSLLYSIGYNYLDWYLQKPGQSPQGLIYLGHKRASGVPDRFSGSGSGTDFTLRISRVEANDTGVYYCMQGLQSPLTFGQGTKLEIKR
// result 306000

The values you see were collected from patent US20250188176A1.
